All figures here come from ChEMBL document CHEMBL4689842.

Tested on: HEK-293T
Assay: Multiplex assay against HEK293T
Type: toxicity, cell-based
Conditions: human, 12 h, 1 µM, compound concentration 1 uM, replicate 2
ENDPOINT NAME: Total Cell Count
Keep the answer to the number alone.

Consider the reported Total Cell Count for these compounds:
{"columns": ["COMPOUND", "MEASURED NUMBER"],
 "data": [
  ["NC(=O)c1ccc2nc(-c3ccc(C4(N)CCC4)cc3)c(-c3ccccc3)n2n1 [BAY-1125976]", 1223],
  ["C=CC(=O)Nc1cc(-n2c(=O)ccc3cnc4ccc(-c5ccc(NS(C)(=O)=O)cc5)cc4c32)ccc1C", 171],
  ["CCCCN(CC)c1nc(C)nc2c1c(C)cn2-c1c(C)cc(C)cc1C.Cl", 240]
]}

Short answer for "Cc1ccc(NC(=O)Nc2cc(C(F)(F)F)ccc2F)cc1Nc1ccc2c(c1)NC(=O)/C2=C\c1ccc[nH]1" : Total Cell Count was 1372

Short answer for "CC(/C=C1\SC(=S)N(CCCC(=O)Nc2ccc(C(=O)O)c(O)c2)C1=O)=C\c1ccccc1" : Total Cell Count was 242
